The reported measurements were obtained from patent US20120039802A1.

Answer each item with its documented WC ELISA (fold over background).
# experimental_system: T1, human cMet expressed on 3T3 cells (human, UniProt P08581 25-1390)
# T1 construct: whole, on cells; cells fixed with glutaraldehyde; also called cell surface-expressed human cMet; 3T3 cells that over-express human cMet
# T1 sequence (P08581 25-1390): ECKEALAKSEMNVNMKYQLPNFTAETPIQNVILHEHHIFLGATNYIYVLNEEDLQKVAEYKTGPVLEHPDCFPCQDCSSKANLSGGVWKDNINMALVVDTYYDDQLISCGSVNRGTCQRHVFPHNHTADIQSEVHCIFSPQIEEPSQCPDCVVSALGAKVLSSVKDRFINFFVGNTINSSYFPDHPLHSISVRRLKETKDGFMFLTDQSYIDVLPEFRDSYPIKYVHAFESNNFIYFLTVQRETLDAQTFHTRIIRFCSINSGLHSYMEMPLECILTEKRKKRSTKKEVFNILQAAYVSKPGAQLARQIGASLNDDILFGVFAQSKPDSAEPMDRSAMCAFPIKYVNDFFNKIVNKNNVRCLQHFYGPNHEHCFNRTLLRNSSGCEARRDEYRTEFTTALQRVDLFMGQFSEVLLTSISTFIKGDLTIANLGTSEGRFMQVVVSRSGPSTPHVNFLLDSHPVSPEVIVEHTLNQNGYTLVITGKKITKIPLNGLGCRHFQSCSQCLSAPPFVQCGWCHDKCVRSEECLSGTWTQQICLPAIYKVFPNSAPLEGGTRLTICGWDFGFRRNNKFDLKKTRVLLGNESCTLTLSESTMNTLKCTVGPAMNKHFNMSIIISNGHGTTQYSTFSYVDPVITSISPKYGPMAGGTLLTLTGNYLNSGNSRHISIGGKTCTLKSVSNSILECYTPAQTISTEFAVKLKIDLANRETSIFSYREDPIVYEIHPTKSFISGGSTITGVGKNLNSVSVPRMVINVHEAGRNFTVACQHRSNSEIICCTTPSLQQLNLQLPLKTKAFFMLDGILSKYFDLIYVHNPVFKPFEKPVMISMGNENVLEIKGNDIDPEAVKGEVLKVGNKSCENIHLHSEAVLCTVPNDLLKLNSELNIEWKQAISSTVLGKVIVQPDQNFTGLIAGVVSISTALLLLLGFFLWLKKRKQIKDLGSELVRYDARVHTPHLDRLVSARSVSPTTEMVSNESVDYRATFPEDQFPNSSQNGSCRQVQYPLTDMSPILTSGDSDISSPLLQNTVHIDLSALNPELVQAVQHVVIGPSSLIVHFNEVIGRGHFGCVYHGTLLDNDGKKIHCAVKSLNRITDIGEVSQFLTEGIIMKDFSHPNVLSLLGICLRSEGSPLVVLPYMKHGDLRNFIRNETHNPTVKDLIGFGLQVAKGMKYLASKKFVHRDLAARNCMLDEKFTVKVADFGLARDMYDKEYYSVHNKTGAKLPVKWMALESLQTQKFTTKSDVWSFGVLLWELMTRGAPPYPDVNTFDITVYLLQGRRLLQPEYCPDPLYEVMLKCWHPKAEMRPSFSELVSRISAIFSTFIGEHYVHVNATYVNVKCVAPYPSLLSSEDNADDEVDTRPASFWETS
# assay_text: whole cell phage ELISA, 3T3 human cMet vs 3T3
One number for each entry, in fold.

binder	WC ELISA (fold over background) / fold
AQMWHRVHDPGYTFEVTWLWDN [166-H04 peptide-displaying phage (SEQ ID NO: 488)]	1.27
AQHVVTLTLIQMPFAFNFEPRM [118-B12 peptide-displaying phage (SEQ ID NO: 484)]	1.3
GSAGWCYTMNYVDQLCTYMAP [445-E11 peptide-displaying phage (SEQ ID NO: 387)]	1.43
AGHGTCRGWPTFECIYFGT [332-A05 peptide-displaying phage (SEQ ID NO: 064)]	1.4
AQIQGIQKTEQGEFYWFNWFPA [528-F05 peptide-displaying phage (SEQ ID NO: 450)]	1.1

Each of the following entries comes with a recorded value; kindly state WC ELISA (fold over background) for each.
1. AQRWSSPGMSQSFVLEWKWNDN [118-A08 peptide-displaying phage (SEQ ID NO: 453)]
2. AGKQWCVVWEETCDQLGT [465-F10 peptide-displaying phage (SEQ ID NO: 039)]
3. AQFDRYWHFAWMDVSFSSGQSG [92-B05 peptide-displaying phage (SEQ ID NO: 465)]
4. GDHLTCEFRDDGWKEHCWWSDP [552-F06 peptide-displaying phage (SEQ ID NO: 403)]
5. GSLIICWWSWCDKQAP [567-C08 peptide-displaying phage (SEQ ID NO: 009)]

1: 1.3; 2: 1.33; 3: 1.2; 4: 1.23; 5: 1.27
